Source listed as ChEMBL document CHEMBL1140660.

Measured Ki on Stromelysin-1 (Homo sapiens, UniProt P08254) follows.
Sequence (P08254 whole entry): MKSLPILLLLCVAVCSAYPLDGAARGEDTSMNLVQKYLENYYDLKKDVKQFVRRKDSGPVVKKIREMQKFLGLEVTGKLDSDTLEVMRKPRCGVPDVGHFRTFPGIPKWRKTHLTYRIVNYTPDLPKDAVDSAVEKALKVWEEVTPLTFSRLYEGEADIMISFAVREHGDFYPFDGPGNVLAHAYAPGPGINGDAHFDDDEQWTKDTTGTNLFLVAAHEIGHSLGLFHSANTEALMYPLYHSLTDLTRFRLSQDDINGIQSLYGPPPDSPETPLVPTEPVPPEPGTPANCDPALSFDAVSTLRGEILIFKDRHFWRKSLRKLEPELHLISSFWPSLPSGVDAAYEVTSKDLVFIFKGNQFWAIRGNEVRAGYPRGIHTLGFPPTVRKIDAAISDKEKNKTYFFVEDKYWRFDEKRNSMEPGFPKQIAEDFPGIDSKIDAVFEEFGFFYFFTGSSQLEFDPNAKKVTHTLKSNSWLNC

Exam item: Returns the measured Ki for the input compound. Input: "Cc1cc(COc2ccc(C(=O)NC(C)(C)Cc3n[nH]c(=S)[nH]3)cc2)c2ccccc2n1"
Marked response: > 4.5 µM

Exam item: Entry "Cc1cc(COc2ccc(C(=O)NCc3n[nH]c(=S)[nH]3)cc2)c2ccccc2n1" has what Ki?
Marked response: > 4.5 µM

Exam item: Param item = CCCN1C[C@H](c2n[nH]c(=S)[nH]2)[C@H](NC(=O)c2ccc(OCc3cc(C)nc4ccccc34)cc2)C1 (relative stereo) ; retrieve measured Ki.
Marked response: > 4.5 µM

Exam item: Consider the compound shown here: Cc1cc(COc2ccc(C(=O)N[C@@H]3CCOC[C@@H]3c3n[nH]c(=S)[nH]3)cc2)c2ccccc2n1 (relative stereo) What is its recorded Ki?
Marked response: > 4.5 µM
